# systemUnderTest: T1, human Ang-2 (human, UniProt O15123)
# T1 chain: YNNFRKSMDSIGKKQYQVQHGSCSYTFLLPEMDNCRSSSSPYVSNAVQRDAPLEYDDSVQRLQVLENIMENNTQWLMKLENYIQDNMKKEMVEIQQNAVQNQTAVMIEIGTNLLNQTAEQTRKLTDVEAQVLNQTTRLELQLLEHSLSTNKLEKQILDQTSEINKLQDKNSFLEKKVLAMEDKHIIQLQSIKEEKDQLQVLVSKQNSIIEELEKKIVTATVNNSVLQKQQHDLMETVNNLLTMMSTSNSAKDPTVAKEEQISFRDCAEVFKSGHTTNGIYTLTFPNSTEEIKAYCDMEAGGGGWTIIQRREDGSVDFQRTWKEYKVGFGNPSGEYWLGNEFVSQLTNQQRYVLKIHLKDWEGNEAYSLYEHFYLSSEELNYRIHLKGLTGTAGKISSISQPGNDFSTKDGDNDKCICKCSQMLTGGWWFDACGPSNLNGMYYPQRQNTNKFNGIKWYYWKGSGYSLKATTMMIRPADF
# assayNotes: competition ELISA vs Tie-2
Primed or numbered codes have the meaning given here. Where no end group is shown, it is not given here. [ ]: non-standard residue; d: D form. Fc(4) = non-antigen-binding fragment of an antibody (from proteolytic digestion of a whole antibody); Fc(7) = Fc domain, peptide fused N- or C-terminal to it
testReadout: IC50 (nM)
Write the answer as a number in nM, unit excluded.

M[Fc(7)]GGGGGAQQGMKMFCEWDPWTCAHIVYRLE (not fully specified (bridges); cysteine pairing not given here) [Con4-11 (C)] :: 9.7

For M[Fc(4)]GGGGGAQWAAQEECEWDPWTCEHMGRMLE (not fully specified; cysteine pairing not given here) [Con4-49 (C)] , what is its reported IC50? 0.19

Just for reference, patent US7205275 is where these values come from.
